testTarget: γδ T cell receptor on human γδ T cells (AG000003021) (human)
protocolDetails: flow cytometry, DRC binding at 37°C on human γδ T cells
measuredMetric: Max. Activity (fold over background)
Respond numerically; units are fold over background and should not be typed.

Examples with answers:
VG9B121 (antibody, human IgG1, kappa, V domains shown, IgG1, kappa) VH: EVQLVESGGGLVKPGGSLRLSCVASGFTFSDYAMDWVRQAPGKGLDWISSISSTSNYIFYADSVKGRFTISRDNAKNSLYLQMNSLRVEDSAVYYCANSYNWNYGGAFDIWGQGTMVTVSS VL: DIQMTQSPGTLSSSPGERATLSCRASQSVSSSYFAWYQQKPGRAPRLLIYGASSRATGIPDRFSGSGSGTDFTLTISRLEPEDFAVYFCQQYGRSPLTFGGGTKVEIKR : 3670
VG9B104 (antibody, human IgG1, kappa, V domains shown, IgG1, kappa) VH: EVQLVESGGGLVKPGGSLRLSCAASGFTFSVYSMNWVRQAPGKGLEWVSSIGSSSSYIFYADSVKGRFTISRDNAKNSLYLQMNSLRAEDTAVYYCGRDHDYGGLDYWGQGTLVTVSS VL: EIVLTQSPGTLSLSPGERATLSCRASQSVSSSYLAWYQQKPGQAPRLLIYGPSNRATDIPDRFSGTGSGTDFTLTISRLEPEDFAVYYCQQYGRSPLTFGGGTKVEIKR : 3050
VG9B54 (antibody, human IgG1, kappa, V domains shown, IgG1, kappa) VH: EVQLVESGGGLVKPGGSLRLSCAASGFAFSSYSLTWVRQAPGKGLEWVSSISSSSSYIFYADSVKGRFTISRDNAKNSLYLQMNSLRAEDTAVYYCATDGELGPFDYWGQGTTVTVSS VL: EIVMTQSPGTLSLSPGERATLSCRASQSVSSSYLAWFQQKPGQAPRRLIYGASSRATGIPDRFSGSGSGTDFTLTISRLEPEDFAVYYCQQYGRSPLTFGGGTKVEIKR : 4290

In: # input binder: VG9B80 (antibody, human IgG1, kappa, V domains shown, IgG1, kappa) VH: EVQLVQSGGGLVKSGGSLRLSCAASGFTFSTYSMNWVRQAPGKGLEWVSSISSSSSYIFYADSVKGRIIISRDNAKNSLYLQMNSVRADDTAVYYCAKDGELGVFDYWGQGTLVTVSS VL: EIVLTQSPGTLSLSAGERATLSCRASQSISSSYLAWYQQKPGQAPRVLIYGPSGRATGIPDRFRGSGSGTDFTLTISRLEPEDFAVYYCQQFGRSPLTFGGGTKVEIKR ; wanted: its Max. Activity
Out: 3480
